Test: recombinant barcode read abundance after kanamycin selection (control-corrected) (log10(CPM+1)); higher = more efficient recombination; sequences stand for … in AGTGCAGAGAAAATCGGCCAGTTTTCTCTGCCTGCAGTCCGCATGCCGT…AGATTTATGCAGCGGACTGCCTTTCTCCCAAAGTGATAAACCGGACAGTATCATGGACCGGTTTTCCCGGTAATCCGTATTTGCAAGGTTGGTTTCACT; site = the 11-nt target
This listing pairs sequences with measured recombinant barcode read abundance (log10).
Reply: number alone, nothing else.

Worked examples follow.
>  <Residue string>
AAGCGAACTTGGGTTCTAACCTGTTGCCT (site AAGCTAACTAG)

>  <Endpoint value>
0.319

$$$$
>  <Residue string>
AACACGACTTGGGTTCTAACCTGTTGCTC (site CCATATGCTAG)

>  <Endpoint value>
0.235

$$$$

Input line: Using the record for AGAAGTCCTTGGGTTCTAACCTGTTGCTG (site AGAAGTCCTCC) , state its measured recombinant barcode read abundance (log10).
Output line: 0.0845

Input line: Using the record for ACCGATTCTTGGGTTCTAACCTGTTGCAT (site ACCGATTCTAT) , state its measured recombinant barcode read abundance (log10).
Output line: 0.696

Input line: Using the record for AACTTATCTTGGGTTCTAACCTGTTGCCT (site AACTCATCTAG) , state its measured recombinant barcode read abundance (log10).
Output line: 0.0843

Input line: Using the record for GACATACCTTGGGTTCTAACCTGTTGCCT (site GACCTACCTAG) , state its measured recombinant barcode read abundance (log10).
Output line: 0.273

Input line: Using the record for GTAGGGACTTGGGTTCTAACCTGTTGCCT (site GGAGGGACTAG) , state its measured recombinant barcode read abundance (log10).
Output line: 0.439

---

This listing pairs sequences with measured recombinant barcode read abundance (log10).
Assay: recombinant barcode read abundance after kanamycin selection (control-corrected) (log10(CPM+1)); higher = more efficient recombination; sequences stand for … in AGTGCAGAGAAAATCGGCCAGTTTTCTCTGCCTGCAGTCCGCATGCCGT…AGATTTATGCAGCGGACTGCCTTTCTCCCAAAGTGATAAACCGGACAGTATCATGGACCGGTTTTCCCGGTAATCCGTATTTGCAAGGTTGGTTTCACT; site = the 11-nt target
Reply: number alone, nothing else.

>  <Residue string>
ATATTTCCTTGGGTTCTAACCTGTTGCCT (site ACATTTCCTAG)

>  <Endpoint value>
0.0246

$$$$
>  <Residue string>
GACTCATCTTGGGTTCTAACCTGTTGCGG (site GACTCATCTCC)

>  <Endpoint value>
0.151

$$$$
>  <Residue string>
CCTAACCCTTGGGTTCTAACCTGTTGCGT (site CCTAATCCTAC)

>  <Endpoint value>
0.381

$$$$
>  <Residue string>
GCAGGGACTTGGGTTCTAACCTGTTGCAG (site GCATGGACTCT)

>  <Endpoint value>
0.224

$$$$

Input line: Using the record for GTCTCTACTTGGGTTCTAACCTGTTGCCT (site GCCTCTTCTAG) , state its measured recombinant barcode read abundance (log10).
Output line: 0.0271

---

Test: recombinant UMI read abundance after kanamycin selection (control-corrected) (log10(CPM+1)); higher = more efficient recombination; extreme values may be limits of the assay; sequences stand for … in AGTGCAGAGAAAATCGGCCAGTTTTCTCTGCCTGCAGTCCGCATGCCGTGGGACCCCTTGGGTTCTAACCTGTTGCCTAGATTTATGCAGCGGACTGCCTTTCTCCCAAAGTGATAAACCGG…AGGTTGGTTTCACT; site = the 11-nt donor
Quantity kind: recombinant UMI read abundance (log10)

>  <Residue string>
ACGTGAGCATGGACCGGTTTTCCCGGTAATCCGTATTTGCC (site ACGTGAGCTGG)

>  <recombinant UMI read abundance (log10)>
2.7

$$$$
>  <Residue string>
CTGCTATCATGGACCGGTTTTCCCGGTAATCCGTATTTGCT (site CTGCTATCTAG)

>  <recombinant UMI read abundance (log10)>
2.33

$$$$
>  <Residue string>
CACGGTCCATGGACCGGTTTTCCCGGTAATCCGTATTTGCA (site CTCGGTCCTTG)

>  <recombinant UMI read abundance (log10)>
0

$$$$
>  <Residue string>
AGCCTAACATGGACCGGTTTTCCCGGTAATCCGTATTTGTT (site AGCCTAACTAA)

>  <recombinant UMI read abundance (log10)>
0.00538

$$$$
>  <Residue string>
GAATTCCCATGGACCGGTTTTCCCGGTAATCCGTATTTGCT (site AAATTCCCTAG)

>  <recombinant UMI read abundance (log10)>
0

$$$$
>  <Residue string>
CGGAAGTCATGGACCGGTTTTCCCGGTAATCCGTATTTGCC (site CGGGAGTCTGG)

>  <recombinant UMI read abundance (log10)>
0.686

$$$$
>  <Residue string>
GGGAATCCATGGACCGGTTTTCCCGGTAATCCGTATTTGAA (site GGAAATCCTTT)

>  <recombinant UMI read abundance (log10)>
0.0039

$$$$
>  <Residue string>
CTAGTCACATGGACCGGTTTTCCCGGTAATCCGTATTTGAC (site CTAGTATCTGT)

>  <recombinant UMI read abundance (log10)>
0

$$$$
>  <Residue string>
CTAGATTCATGGACCGGTTTTCCCGGTAATCCGTATTTGGA (site CTAGATTCTTC)

>  <recombinant UMI read abundance (log10)>
2.84

$$$$
>  <Residue string>
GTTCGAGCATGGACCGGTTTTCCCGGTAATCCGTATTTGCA (site GATCGAGCTTG)

>  <recombinant UMI read abundance (log10)>
0.258

$$$$

Input line: Using the record for CGTGAGTCATGGACCGGTTTTCCCGGTAATCCGTATTTGCC (site CGGGAGTCTGG) , state its measured recombinant UMI read abundance (log10).
Output line: 0.694

Input line: Using the record for TCCAGTTCATGGACCGGTTTTCCCGGTAATCCGTATTTGCC (site TCCATTTCTGG) , state its measured recombinant UMI read abundance (log10).
Output line: 0

Input line: Using the record for CCCCACCCATGGACCGGTTTTCCCGGTAATCCGTATTTGTA (site CCCCACACTTA) , state its measured recombinant UMI read abundance (log10).
Output line: 0.0263

Input line: Using the record for CGTTAGACATGGACCGGTTTTCCCGGTAATCCGTATTTGAT (site CGTTAGACTAT) , state its measured recombinant UMI read abundance (log10).
Output line: 1.58

Input line: Using the record for TATTAGGCATGGACCGGTTTTCCCGGTAATCCGTATTTGTG (site TATTAGGCTCA) , state its measured recombinant UMI read abundance (log10).
Output line: 0.459

Input line: Using the record for CCGTGTACATGGACCGGTTTTCCCGGTAATCCGTATTTGCT (site CCGTTTACTAG) , state its measured recombinant UMI read abundance (log10).
Output line: 0

Input line: Using the record for TCAAGGACATGGACCGGTTTTCCCGGTAATCCGTATTTGCA (site TCAAGGACTTG) , state its measured recombinant UMI read abundance (log10).
Output line: 1.86

Input line: Using the record for ATTAGAACATGGACCGGTTTTCCCGGTAATCCGTATTTGGC (site TTTAGAACTGC) , state its measured recombinant UMI read abundance (log10).
Output line: 1.19
